Source: the supplement of paper PMC11061612

system: NCI-H727 (Other Solid Carcinomas); assay: Bliss excess, mean over the matrix (fraction); higher = more synergy;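 also: after 72 h of two-drug dosing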
Grouping key: Bliss excess. Bins: bucket 1: < -0.02; bucket 2: ≥ -0.02 and < -0.006; bucket 3: ≥ -0.006

Completed entries (count: 4):
[
  {
    "Compound": "C[C@@H](Nc1cc(F)cc(F)c1)c1cc(C(=O)N(C)C)cc2c(=O)cc(N3CCOCC3)oc12 [AZD8186] + C1CN(CCC1(C(=O)N[C@@H](CCO)C2=CC=C(C=C2)Cl)N)C3=NC=NC4=C3C=CN4 [AZD5363] (first compound max 10 µM, 7x7, partner max 10 µM)",
    "Assigned Category": "bucket 2"
  },
  {
    "Compound": "C[C@@H](c1ccc2nccn2c1)n1nnc2ncc(-c3cnn(C)c3)nc21 [Savolitinib] + CC1(C)CCC(CN2CCN(c3ccc(C(=O)NS(=O)(=O)c4ccc(NCC5CCOCC5)c([N+](=O)[O-])c4)c(Oc4cnc5[nH]ccc5c4)c3)CC2)=C(c2ccc(Cl)cc2)C1 [Venetoclax] (first compound max 1 µM, 7x7, partner max 1 µM)",
    "Assigned Category": "bucket 1"
  },
  {
    "Compound": "C[C@@H](Oc1cc(-c2cnn(C3CCNCC3)c2)cnc1N)c1c(Cl)ccc(F)c1Cl [Crizotinib] + CC1=C(C(=CC=C1)Cl)NC(=O)C2=CN=C(S2)NC3=CC(=NC(=N3)C)N4CCN(CC4)CCO [Dasatinib] (first compound max 10 µM, 7x7, partner max 2 µM)",
    "Assigned Category": "bucket 3"
  },
  {
    "Compound": "Cc1c2c(nn1C)CSCc1cc(n(C)n1)CSc1cc(c3ccccc3c1)OCCCc1c(C(=O)O)n(C)c3c-2c(Cl)ccc13 [AZD5991] + C=CCn1c(=O)c2cnc(Nc3ccc(N4CCN(C)CC4)cc3)nc2n1-c1cccc(C(C)(C)O)n1 [AZD1775] (first compound max 1 µM, partner max 1 µM)",
    "Assigned Category": "bucket 2"
  }
]

Which class is correct for the following compound? CC(=O)c1c(C)c2cnc(Nc3ccc(N4CCNCC4)cn3)nc2n(C2CCCC2)c1=O [Palbociclib] + Cn1cnc2c(F)c(Nc3ccc(Br)cc3Cl)c(C(=O)NOCCO)cc21 [Selumetinib] (first compound max 10 µM, 7x7, partner max 10 µM) bucket 2

Repeat for the following compound: Cc1c2c(nn1C)CSCc1cc(n(C)n1)CSc1cc(c3ccccc3c1)OCCCc1c(C(=O)O)n(C)c3c-2c(Cl)ccc13 [AZD5991] + CC1(C)CCC(CN2CCN(c3ccc(C(=O)NS(=O)(=O)c4ccc(NCC5CCOCC5)c([N+](=O)[O-])c4)c(Oc4cnc5[nH]ccc5c4)c3)CC2)=C(c2ccc(Cl)cc2)C1 [Venetoclax] (first compound max 1 µM, 7x7, partner max 1 µM) bucket 2

* * *

test system: JVM-3 (B-Cell Non-Hodgkin's Lymphoma); experiment: combination Emax (second highest fraction inhibited in the dose matrix, 72 h); higher = more inhibition; extreme values may be limits of the assay
Kindly state combination Emax for each of the entries shown.
Answers are plain numbers.

[
  {
    "Compound": "CN(CCO)CC[C@H](CSc1ccccc1)Nc1ccc(S(=O)(=O)NC(=O)c2ccc(N3CCC([C@@H](O)c4ccccc4-c4ccc(Cl)cc4)CC3)cc2)cc1S(=O)(=O)C(F)(F)F [AZD4320] + C[C@@H](Nc1cc(F)cc(F)c1)c1cc(C(=O)N(C)C)cc2c(=O)cc(N3CCOCC3)oc12 [AZD8186] (first compound max 1 µM, 7x7, partner max 3 µM)",
    "Reading": 1
  }
]

// for each compound below, give its combination Emax
1. CC1(C)CCC(CN2CCN(c3ccc(C(=O)NS(=O)(=O)c4ccc(NCC5CCOCC5)c([N+](=O)[O-])c4)c(Oc4cnc5[nH]ccc5c4)c3)CC2)=C(c2ccc(Cl)cc2)C1 [Venetoclax] + C1CN(CCC1(C(=O)N[C@@H](CCO)C2=CC=C(C=C2)Cl)N)C3=NC=NC4=C3C=CN4 [Capivasertib] (first compound max 1 µM, 7x7, partner max 3 µM)
2. CN(CCO)CC[C@H](CSc1ccccc1)Nc1ccc(S(=O)(=O)NC(=O)c2ccc(N3CCC([C@@H](O)c4ccccc4-c4ccc(Cl)cc4)CC3)cc2)cc1S(=O)(=O)C(F)(F)F [AZD4320] + C[C@@H]1COCCN1C2=NC(=NC(=C2)C3(CC3)[S@](=N)(=O)C)C4=C5C=CNC5=NC=C4 [AZD6738] (first compound max 1 µM, 7x7, partner max 10 µM)
3. Cc1c2c(nn1C)CSCc1cc(n(C)n1)CSc1cc(c3ccccc3c1)OCCCc1c(C(=O)O)n(C)c3c-2c(Cl)ccc13 [AZD5991] + CN(C)CCCOc1ccc(-c2ccc3ncc4c(c3c2)n(C2CCOCC2)c(=O)n4C)cn1 [AZD0156] (first compound max 1 µM, 7x7, partner max 1 µM)
4. Cc1cc2ncnn2cc1Nc1ncc2c(n1)n(C1CCOCC1)c(=O)n2C [AZD7648] + C=CCn1c(=O)c2cnc(Nc3ccc(N4CCN(C)CC4)cc3)nc2n1-c1cccc(C(C)(C)O)n1 [AZD1775] (first compound max 10 µM, partner max 1 µM)
5. CCc1c2c(nc3ccc(O)cc13)-c1cc3c(c(=O)n1C2)COC(=O)[C@]3(O)CC [SN-38] + O=C(c1cc(Cc2n[nH]c(=O)c3ccccc23)ccc1F)N1CCN(C(=O)C2CC2)CC1 [Olaparib] (first compound max 0.3 µM, 7x7, partner max 10 µM)
6. Cc1c2c(nn1C)CSCc1cc(n(C)n1)CSc1cc(c3ccccc3c1)OCCCc1c(C(=O)O)n(C)c3c-2c(Cl)ccc13 [AZD5991] + Cn1cnc2c(F)c(Nc3ccc(Br)cc3Cl)c(C(=O)NOCCO)cc21 [Selumetinib] (first compound max 1 µM, 7x7, partner max 3 µM)

[0.636, 0.993, 0.509, 0.904, 0.998, 0.472]
